- MEASURED ON: MCL-1 (Homo sapiens)
- Sequence (Q07820 whole entry): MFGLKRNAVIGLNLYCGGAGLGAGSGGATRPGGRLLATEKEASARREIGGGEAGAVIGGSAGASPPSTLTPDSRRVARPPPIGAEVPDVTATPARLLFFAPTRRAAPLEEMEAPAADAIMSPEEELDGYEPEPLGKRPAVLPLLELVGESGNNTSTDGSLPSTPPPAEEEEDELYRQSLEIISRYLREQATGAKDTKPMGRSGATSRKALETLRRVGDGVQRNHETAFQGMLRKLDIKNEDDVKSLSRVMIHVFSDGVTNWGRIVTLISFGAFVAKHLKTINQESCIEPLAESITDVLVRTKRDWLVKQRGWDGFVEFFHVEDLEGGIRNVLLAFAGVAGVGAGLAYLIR
- ASSAY NAME: Protein-protein interaction assay MCL-1/Noxa BH3 peptide (MCL-1 assay), TR-FRET
- Assay type: binding
- CONDITION PARAMETERS: MBP-MCL-1 / Noxa BH3-derived peptide, median
VALUE KIND: IC50 (nM)

(A) Cc1c2c(nn1C)CN(C)CCCn1c(C(=O)O)c(CCCOc3cccc4ccccc34)c3cccc-2c31 (single isomer, unassigned; enantiomer 2) [Example 1-35]
(B) Cn1nc(C(F)(F)F)c2c1COCCCCn1c(C(=O)O)c(CCCOc3cccc4ccccc34)c3cccc-2c31 (single isomer, unassigned) [Example 218]
(C) O=C(O)c1c(CCCOc2cccc3ccccc23)c2cccc3c2n1CCCCOCc1nn2c(c1-3)CCCC2 (single isomer, unassigned) [Example 254]
(D) CCc1nn(CCN2CCOCC2)c2c1-c1cccc3c(CCCOc4cccc5ccccc45)c(C(=O)O)n(c13)CCCCOC2 (single isomer, unassigned; enantiomer 1) [Example 199]
(E) Cc1c2c(nn1C)COCCCCn1c(C(=O)O)c(CCCOc3cccc4cc(C(F)(F)F)ccc34)c3cccc-2c31 (racemic) [Example 310]
Sort the entries above numerically by IC50, high end first. Please list the labels according to the requested order.
B, A, E, C, D

---

- Tested on: SUDHL10
- ASSAY NAME: Induction of caspase-3/7 activity (Caspase-Glo 3/7), SUDHL10
- Type: cell-based
- CONDITION PARAMETERS: Homo sapiens, SU-DHL10, 3 h, caspase-3/7 induction, SUDHL10 cells, 3 h treatment; median
- Excerpt: Induction of Caspase-317 Activity Upon Treatment of Cells with Selected Compounds The BH3-domain of MCL-1 sequesters pro-apoptotic proteins, thereby inhibiting apoptosis. In contrast, MCL-1 inhibitors are expected to antagonize this effect leading to an increase in apoptosis, which can be determined by measuring the activity of caspase-3/7. […] For the evaluation of the results, the background measured with “medium-only” was subtracted from all other values. […]
VALUE KIND: EC50 (µM)

INSERT INTO measurements (compound, measured_on, value_kind, reading) VALUES
  ('CN1CCCn2c(C(=O)O)c(CCCOc3cccc4ccccc34)c3cccc(c32)-c2c(CN3CCOCC3)nn(C)c2C1 (single isomer, unassigned; enantiomer 1) [Example 1-43]', 'SUDHL10', 'EC50', 11.1);

(P) CCc1nn(C)c2c1-c1c(C)ccc3c(CCCOc4cccc5cc(F)ccc45)c(C(=O)O)n(c13)CCCCOC2 (racemic)
(Q) CCc1nn(C)c2c1-c1cccc3c(CCCOc4cccc5cc(F)ccc45)c(C(=O)O)n(c13)CCCCOC2 (racemic)
For the pair P and Q , which member has the lower EC50 number? Please indicate the selected item by its label.
P
(P: 4.47 µM, Q: 13 µM)

---

The reader will find reported IC50 values listed item by item below.
- Tested on: SUDHL5
- ASSAY NAME: Induction of cytotoxicity (CellTiter-Glo, 5 h), SUDHL5
- CONDITION PARAMETERS: read-out: Cytotox SUDHL5 [M] (median); SUDHL5 cells, cytotoxicity induction, CellTiter-Glo, 5 h, median
State just the number; it will be interpreted in M.

INSERT INTO results (compound, unit_annotation, reading) VALUES
  ('COc1ccc(OCc2nn(C)c3c2-c2cccc4c(CCCOc5cccc6ccccc56)c(C(=O)O)n(c24)CCCCOC3)cc1 (single isomer, unassigned; enantiomer 1) [Example 320]', 'M', '1.1e-05');

// IC50 lookup, compound = CC(=O)NCc1nn(C)c2c1-c1cccc3c(CCCOc4cccc5ccccc45)c(C(=O)O)n(c13)CCCCOC2 (single isomer, unassigned; enantiomer 2) , result: 2.64e-05

get_value(item= Cc1c2c(nn1C)COCCCCn1c(C(=O)O)c(CCCOc3cccc4cc(F)ccc34)c3cccc-2c31 (single isomer, unassigned; enantiomer 2) [Example 302] , readout=IC50) returns 1.05e-06

get_value(item= COc1ccc(OCc2nn(C)c3c2-c2cccc4c(CCCOc5cccc6ccccc56)c(C(=O)O)n(c24)CCCCOC3)cc1 (single isomer, unassigned; enantiomer 2) [Example 321] , readout=IC50) returns 2.97e-05

---

- System: SUDHL10
- ASSAY NAME: Induction of cytotoxicity (CellTiter-Glo, 5 h), SUDHL10
- CONDITION PARAMETERS: read-out: Cytotox SUDHL10 [M] (median); SUDHL10 cells, cytotoxicity induction, CellTiter-Glo, 5 h incubation, median
Measured IC50 values are reported for all entries that follow.
Quick note: give the figure in M, leave out the unit.

Before answering, review these 2 worked examples.
INSERT INTO assay_data (compound, reading) VALUES
  ('O=C(O)c1c(CCCOc2cccc3ccccc23)c2cccc3c2n1CCCCOCc1nn2c(c1-3)CCCC2 (single isomer, unassigned) [Example 254]', '8.11e-06'),
  ('Cc1ccc2c(C(C)CCOc3cccc4cc(F)ccc34)c(C(=O)O)n3c2c1-c1c(nn(C)c1C)COCCCC3 (single isomer, unassigned) [Example 280]', '3.07e-05');

Consider the record given below.
get_value(item= Cc1c2c(nn1C1CC1)COCCCCn1c(C(=O)O)c(CCCOc3cccc4ccccc34)c3cccc-2c31 (single isomer, unassigned; enantiomer 1) [Example 093] , readout=IC50) returns 7.2e-06

---

- Tested on: A2780
- ASSAY NAME: Anti-proliferative effect (CellTiter-Glo, 72 h), A2780
- Format: cell-based
- CONDITION PARAMETERS: A2780 cells, median, read-out: IC50 antiproliferation assay A2780 [M] (median)
- Procedure: Assessment of the Anti-Proliferative Effect of Compounds in Different Cell Lines The impact of compounds on the proliferation of different cell lines was assessed using the CellTiter-Glo® Luminescent Cell Viability reagent from Promega (G7573). […] After 72 h incubation, the treated plates were measured in the same way as the day 0 plate mentioned above.
VALUE KIND: IC50 (M)

INSERT INTO results (compound, reading) VALUES
  ('Cn1nc2c(c1C(F)(F)F)-c1cccc3c(CCCOc4cccc5ccccc45)c(C(=O)O)n(c13)CCCCOC2 (racemic) [Example 186]', '2.28e-05');

(P) COCCn1nc(C2CC2)c2c1COCCCCn1c(C(=O)O)c(CCCOc3cccc4ccccc34)c3cccc-2c31 (single isomer, unassigned; enantiomer 1) [Example 103]
(Q) Cc1c2c(nn1CCN1CCOCC1)CN(C)CCCn1c(C(=O)O)c(CCCOc3cccc4ccccc34)c3cccc-2c31 (single isomer, unassigned; enantiomer 2)
Choose between P and Q : whose measured IC50 value is numerically larger? Reply briefly: the label of your chosen item.
P

(I) CCc1c2c(nn1C)CN(C)CCCn1c(C(=O)O)c(CCCOc3cccc4ccccc34)c3cccc-2c31 (single isomer, unassigned; enantiomer 2)
(II) CCc1nn(C)c2c1-c1c(C)ccc3c(C(C)CCOc4cccc5ccccc45)c(C(=O)O)n(c13)CCCCOC2 (single isomer, unassigned) [Example 273]
Quick one: lower IC50, I or II ? Bench note: the answer is the label of the chosen record.
II
(II: 4.18e-06 M, I: 1.21e-05 M)

---

- System: A2780
- ASSAY NAME: Anti-proliferative effect (CellTiter-Glo, 72 h), A2780
- Format: cell-based
- CONDITION PARAMETERS: A2780 cells, median, read-out: IC50 antiproliferation assay A2780 [M] (median)
VALUE KIND: IC50 (M)

INSERT INTO measurements (compound, measured_on, unit_annotation, reading) VALUES
  ('Cn1nc(COc2ccc(C3=CCOCC3)cc2)c2c1COCCCCn1c(C(=O)O)c(CCCOc3cccc4ccccc34)c3cccc-2c31 (single isomer, unassigned) [Example 1-63]', 'A2780', 'M', '1.11e-05'),
  ('Cc1c2c(nn1CCN1CCOCC1)COCCCCn1c(C(=O)O)c(CCCOc3cccc4cc(F)ccc34)c3cccc-2c31 (single isomer, unassigned) [Example 286]', 'A2780', 'M', '1.26e-05');

---

- MEASURED ON: UniProt:Q07820
- ASSAY NAME: Protein-protein interaction assay MCL-1/Noxa BH3 peptide (MCL-1 assay), TR-FRET
- Format: binding
- CONDITION PARAMETERS: MBP-MCL-1 / Noxa BH3-derived peptide, median
VALUE KIND: IC50 (µM)

Take a look at these entries with their results.
INSERT INTO results (compound, value_kind, reading) VALUES
  ('Cc1nn(C)c2c1-c1cccc3c(CCCOc4cccc5ccccc45)c(C(=O)O)n(c13)CCCN(c1ccccc1)C2 (racemic)', 'IC50', 0.175),
  ('COCc1nn(C)c2c1-c1cccc3c(CCCOc4cccc5ccccc45)c(C(=O)O)n(c13)CCCCCOC2 (racemic) [Example 177]', 'IC50', 0.0107);

(a) Cn1nc(COc2ccc(S(C)(=O)=O)cc2)c2c1COCCCCn1c(C(=O)O)c(CCCOc3cccc4ccccc34)c3cccc-2c31 (single isomer, unassigned) [Example 1-56]
(b) Cc1cc(OCCCc2c(C(=O)O)n3c4c(cccc24)-c2c(C)nn(C)c2COCCC3)cc(C)c1Cl (racemic) [Example 013]
(c) Cc1ccc2c(C(C)CCOc3cccc4ccccc34)c(C(=O)O)n3c2c1-c1c(C)nn(C)c1COCCCC3 (single isomer, unassigned) [Example 258]
(d) CN1CCCCn2c(C(=O)O)c(CCCOc3cccc4ccccc34)c3cccc(c32)-c2c(/C=C/F)nn(C)c2C1 (racemic) [Example 225]
Ascending sort, IC50. Form entry: ranked labels (order as requested).
d, a, b, c
(d: 0.0032 µM, a: 0.00684 µM, b: 0.0345 µM, c: 12 µM)
